Assay: protein stability index of a GFP-peptide fusion (yeast GPS) (PSI 1-4); higher = more stable; sorted into four equal gates, so the index is relative within each strain
Conditions: ubr1∆
Would you kindly list protein stability index for each of these sequences?
Kindly provide the number alone.

**Q:** I would be grateful if you could share the reported protein stability index for FKPSQEPEFHALSQSSL [RRI1] .
**A:** 2.42

**Q:** I would be grateful if you could share the reported protein stability index for VLAAQSIGEPATQMTLN [RPO21] .
**A:** 2.91

**Q:** I would be grateful if you could share the reported protein stability index for ASIESADILCPLLESFI [IRR1] .
**A:** 2.85

**Q:** I would be grateful if you could share the reported protein stability index for QYATVSKTHKTVSRAYG [RPL34A] .
**A:** 2.34

**Q:** I would be grateful if you could share the reported protein stability index for VDQNPLTMHKIIQLILW [SRB8] .
**A:** 1.36

**Q:** I would be grateful if you could share the reported protein stability index for TKTNVDNNSKAEASFTF [YLR335W/NUP2] .
**A:** 3.13

**Q:** I would be grateful if you could share the reported protein stability index for TPANTNNSTSNANTVFS [SWI1] .
**A:** 2.93

**Q:** I would be grateful if you could share the reported protein stability index for DAKKARFWSFMKTQRFV [SIR4] .
**A:** 2.75

**Q:** I would be grateful if you could share the reported protein stability index for NIIQAKRDAKAAGSYYV [RPL7A] .
**A:** 2.64

**Q:** I would be grateful if you could share the reported protein stability index for VDPASAPNHSPEIDNLD [RRP6] .
**A:** 3.16

**Q:** I would be grateful if you could share the reported protein stability index for PRINNISAEDRADTDLA [SNF2] .
**A:** 2.86

**Q:** I would be grateful if you could share the reported protein stability index for LLIEFPYLPKHYLVLLV [YJR042W/NUP85] .
**A:** 1.81

**Q:** I would be grateful if you could share the reported protein stability index for QSDLEIITQYVFESLEI [ARP9] .
**A:** 3.01

**Q:** I would be grateful if you could share the reported protein stability index for GRLDRKVEIPLPNEAGR [RPT4] .
**A:** 3.09

**Q:** I would be grateful if you could share the reported protein stability index for NFEKPKNSSQLLNEWSH [RPN5] .
**A:** 3.12

**Q:** I would be grateful if you could share the reported protein stability index for NGLGTSHINTNVGDNNS [ARP7] .
**A:** 3.28

**Q:** I would be grateful if you could share the reported protein stability index for AISKKDLEEVKRFQVLY [SEC65] .
**A:** 2.3

**Q:** I would be grateful if you could share the reported protein stability index for PSVKRQKMAELEAARSE [PRP8] .
**A:** 3.28

**Q:** I would be grateful if you could share the reported protein stability index for VHCRISCQIAQPYEDRP [RRP45] .
**A:** 1.92

**Q:** I would be grateful if you could share the reported protein stability index for QQPHYIQRTRERKKSIG [DSN1] .
**A:** 2.69

**Q:** I would be grateful if you could share the reported protein stability index for VNDNDERAARVVKGRVE [RPO31] .
**A:** 3.4

**Q:** I would be grateful if you could share the reported protein stability index for KEIDPSQTTQLAGMDVE [FAS2] .
**A:** 3.6

**Q:** I would be grateful if you could share the reported protein stability index for HITSVPISAVLRGCKFL [GRR1] .
**A:** 2.05

**Q:** I would be grateful if you could share the reported protein stability index for PRVSNQSNEDTFLPSYM [RRI2] .
**A:** 3.44

**Q:** I would be grateful if you could share the reported protein stability index for VVEDKPLLSKKERLVRD [SMB1] .
**A:** 1.49

**Q:** I would be grateful if you could share the reported protein stability index for RQQKLLEDQQRQQKLLL [SWI1] .
**A:** 3.25

**Q:** I would be grateful if you could share the reported protein stability index for DLPDTEGLELLGWIHTQ [PRP8] .
**A:** 3.27

**Q:** I would be grateful if you could share the reported protein stability index for SEVRKAVSIETALEHKV [FAS2] .
**A:** 1.39

**Q:** I would be grateful if you could share the reported protein stability index for SNSNVTNPSSIFGGAGG [YOR098C/NUP1] .
**A:** 2.87

**Q:** I would be grateful if you could share the reported protein stability index for PKFGVEGLIRLDNLTED [DIS3] .
**A:** 3.07

**Q:** I would be grateful if you could share the reported protein stability index for PSEFHCLQDALDAIDDF [SSN2] .
**A:** 3.09

**Q:** I would be grateful if you could share the reported protein stability index for EDALYLGKRSILAAAHR [PRE2] .
**A:** 3.31

**Q:** I would be grateful if you could share the reported protein stability index for QQREAVRQLYKGKKYQP [RPL35A] .
**A:** 2.83

**Q:** I would be grateful if you could share the reported protein stability index for SRGINKGHKFNNTKAGR [RPL15A] .
**A:** 3.4

**Q:** I would be grateful if you could share the reported protein stability index for TLAERQQLAYDLSISAL [RPN9] .
**A:** 2.95

**Q:** I would be grateful if you could share the reported protein stability index for ISSGLLYLQDSNDKFVH [SRB8] .
**A:** 1.14

**Q:** I would be grateful if you could share the reported protein stability index for SLSAYNLTDEGYQWGEE [PRP8] .
**A:** 3.33

**Q:** I would be grateful if you could share the reported protein stability index for VDPARRQILFKYPMYMQ [MED6] .
**A:** 1.47

**Q:** I would be grateful if you could share the reported protein stability index for YVRAKFLDYTTDNVSMY [PRP8] .
**A:** 2.82

**Q:** I would be grateful if you could share the reported protein stability index for EATLLTNSNNGSSNNNT [SNF5] .
**A:** 3.21

**Q:** I would be grateful if you could share the reported protein stability index for ERLDKDKDRDTRRKRRQ [SNF5] .
**A:** 3.46

**Q:** I would be grateful if you could share the reported protein stability index for SQIIARNEEILRDIGEC [SMC2] .
**A:** 3.07

**Q:** I would be grateful if you could share the reported protein stability index for VESVCQKLDILVAKLKK [SMC4] .
**A:** 2.12

**Q:** I would be grateful if you could share the reported protein stability index for IRGAVGNSEAIPGLSAG [RTT102] .
**A:** 3.43

**Q:** I would be grateful if you could share the reported protein stability index for FGGSQPNSGTATTGGFG [YGR119C/NUP57] .
**A:** 3.4

**Q:** I would be grateful if you could share the reported protein stability index for TQHKVTQYKAGKASLFA [RPL42A] .
**A:** 2.96

**Q:** I would be grateful if you could share the reported protein stability index for TKKTITPMGGFVHYGEI [RPL3] .
**A:** 3.01

**Q:** I would be grateful if you could share the reported protein stability index for YNNKVGVAASQGSMSER [SIR2] .
**A:** 1.85

**Q:** I would be grateful if you could share the reported protein stability index for QGPVKNTQLHGPSATDP [RGR1] .
**A:** 3.02

**Q:** I would be grateful if you could share the reported protein stability index for RYFWLDHNGVPFPQYPA [ITC1] .
**A:** 2.47

**Q:** I would be grateful if you could share the reported protein stability index for LKEQSEQLKEQMEDMEE [SMC4] .
**A:** 3.14

**Q:** I would be grateful if you could share the reported protein stability index for MTAVRRSTRIRTKSQVI [IRR1] .
**A:** 3.38
